- target.desc: Serine/threonine-protein kinase/endoribonuclease IRE1 (Homo sapiens, UniProt O75460)
- Sequence (O75460 whole entry): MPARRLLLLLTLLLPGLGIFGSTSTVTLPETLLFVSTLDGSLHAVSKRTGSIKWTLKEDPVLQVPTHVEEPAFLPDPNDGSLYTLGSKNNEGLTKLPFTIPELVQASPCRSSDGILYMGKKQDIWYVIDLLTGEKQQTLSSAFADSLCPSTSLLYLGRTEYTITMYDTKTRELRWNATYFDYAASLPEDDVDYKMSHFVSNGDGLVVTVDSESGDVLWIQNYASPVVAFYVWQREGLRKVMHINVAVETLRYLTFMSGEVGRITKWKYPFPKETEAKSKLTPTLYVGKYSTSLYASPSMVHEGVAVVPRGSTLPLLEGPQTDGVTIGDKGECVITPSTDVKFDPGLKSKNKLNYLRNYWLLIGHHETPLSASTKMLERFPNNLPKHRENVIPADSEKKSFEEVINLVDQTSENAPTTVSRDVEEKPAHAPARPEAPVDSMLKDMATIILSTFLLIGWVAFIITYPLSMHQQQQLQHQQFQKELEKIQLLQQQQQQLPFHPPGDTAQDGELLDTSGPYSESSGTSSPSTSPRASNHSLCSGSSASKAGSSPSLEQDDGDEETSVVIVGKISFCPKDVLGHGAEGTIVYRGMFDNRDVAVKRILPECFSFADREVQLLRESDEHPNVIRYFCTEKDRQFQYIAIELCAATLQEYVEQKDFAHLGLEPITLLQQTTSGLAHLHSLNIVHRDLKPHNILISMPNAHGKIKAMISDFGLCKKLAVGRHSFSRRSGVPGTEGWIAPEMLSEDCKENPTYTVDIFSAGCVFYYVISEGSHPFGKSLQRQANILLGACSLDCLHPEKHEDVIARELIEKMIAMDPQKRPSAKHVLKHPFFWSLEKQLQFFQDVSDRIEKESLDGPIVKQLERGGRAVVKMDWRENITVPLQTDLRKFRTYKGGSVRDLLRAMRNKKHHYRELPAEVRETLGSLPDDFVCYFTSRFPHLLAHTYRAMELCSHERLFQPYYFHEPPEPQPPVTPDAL
pIC50: −log10 of the molar value.
Respond with met for pIC50 values of 8 and above, not met for values below.

molecule: Cc1cc(Nc2nc3ccccc3[nH]2)c2ccccc2c1Oc1ncccc1-c1ccnc(N[C@H]2CCCNC2)n1
class.assignment: met

molecule: Cc1ccc2c(NS(=O)(=O)c3ccccc3Cl)cccc2c1Oc1ncccc1-c1ccnc(N[C@H]2CC[C@H](N)CC2)n1
class.assignment: not met

molecule: OCCNc1nccc(-c2cccnc2Oc2ccc(Nc3nc4ccccc4[nH]3)c3ccccc23)n1
class.assignment: not met

molecule: CC(C)CCNc1nccc(-c2cccnc2Oc2ccc(Nc3nc4ccccc4[nH]3)c3ccccc23)n1
class.assignment: not met

molecule: Cc1cc(NS(=O)(=O)c2ccccc2)c2ccccc2c1Oc1ncccc1-c1ccnc(N[C@H]2CC[C@H](N)CC2)n1
class.assignment: not met

molecule: CN(C)CCNc1nccc(-c2cccnc2Oc2ccc(Nc3nc4ccccc4[nH]3)c3ccccc23)n1
class.assignment: not met

---

- target.desc: Mitogen-activated protein kinase 10 (Homo sapiens, UniProt P53779)
- Sequence (P53779 whole entry): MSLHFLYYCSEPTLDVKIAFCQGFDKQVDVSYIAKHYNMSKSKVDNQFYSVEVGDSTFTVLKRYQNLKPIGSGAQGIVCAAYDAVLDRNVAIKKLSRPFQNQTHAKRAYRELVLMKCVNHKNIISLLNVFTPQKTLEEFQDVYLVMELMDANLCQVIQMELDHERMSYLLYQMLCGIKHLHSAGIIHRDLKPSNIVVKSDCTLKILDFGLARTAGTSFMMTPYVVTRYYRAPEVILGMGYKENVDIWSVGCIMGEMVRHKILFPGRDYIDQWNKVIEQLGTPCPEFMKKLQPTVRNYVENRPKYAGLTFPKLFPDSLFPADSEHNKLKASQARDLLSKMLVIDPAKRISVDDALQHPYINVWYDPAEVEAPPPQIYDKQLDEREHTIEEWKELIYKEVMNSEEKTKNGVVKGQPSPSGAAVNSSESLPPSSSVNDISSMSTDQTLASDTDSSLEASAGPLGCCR
- measurement.protocol: Inhibition of human wild type JNK3 using biotinylated ATF2 substrate assessed as phosphorylation at thr53 on ATF2 by fluorescent plate reader
Below, each of the compounds is paired with its reported IC50 value.
reported.metric: IC50 (nM)

molecule: c1cnc(Oc2ccc(Nc3nc4ccccc4[nH]3)c3ccccc23)c(-c2ccnc(N[C@H]3CCCNC3)n2)c1
target.desc: Mitogen-activated protein kinase 10 (Homo sapiens, UniProt P53779)
numeric.readout: 31
//
molecule: COc1ccccc1S(=O)(=O)Nc1cc(C)c(Oc2ncccc2-c2ccnc(N[C@H]3CC[C@H](N)CC3)n2)c2ccccc12
target.desc: Mitogen-activated protein kinase 10 (Homo sapiens, UniProt P53779)
numeric.readout: 1200
//
molecule: N[C@H]1CC[C@H](Nc2nccc(-c3cccnc3Oc3ccc(Nc4nc5ccccc5[nH]4)c4ccccc34)n2)CC1
target.desc: Mitogen-activated protein kinase 10 (Homo sapiens, UniProt P53779)
numeric.readout: 1.9
//
molecule: Cc1cc(Nc2nc3ccccc3[nH]2)c2ccccc2c1Oc1ncccc1-c1ccnc(N[C@H]2CCCNC2)n1
target.desc: Mitogen-activated protein kinase 10 (Homo sapiens, UniProt P53779)
numeric.readout: 20
//
molecule: OCCNc1nccc(-c2cccnc2Oc2ccc(Nc3nc4ccccc4[nH]3)c3ccccc23)n1
target.desc: Mitogen-activated protein kinase 10 (Homo sapiens, UniProt P53779)
numeric.readout: 12
//
molecule: N[C@H]1CC[C@@H](Nc2nccc(-c3cccnc3Oc3ccc(Nc4nc5ccccc5[nH]4)c4ccccc34)n2)CC1
target.desc: Mitogen-activated protein kinase 10 (Homo sapiens, UniProt P53779)
numeric.readout: 7.5
//
molecule: Cc1cc(Nc2nc3ccccc3[nH]2)c2ccccc2c1Oc1ncccc1-c1ccnc(N[C@H]2CC[C@H](N)CC2)n1
target.desc: Mitogen-activated protein kinase 10 (Homo sapiens, UniProt P53779)
numeric.readout: 1.9

---

- Tested on: HT-1080
- measurement.protocol: Inhibition of human XBP1 splicing in human HT1080-CMV-XBP1-Luciferase cells assessed as luciferase signal by Promega Bright-Glo luciferase assay
- Type: functional
Below, each of the compounds is paired with its reported IC50 value.
reported.metric: IC50

compound: Cc1cc(NS(=O)(=O)c2ccccc2C#N)c2ccccc2c1Oc1ncccc1-c1ccnc(N[C@H]2CC[C@H](N)CC2)n1
target.desc: HT-1080
reported.metric: IC50
result: 62 nM
//
compound: Cc1cc(Nc2nc3ccccc3o2)c2ccccc2c1Oc1ncccc1-c1ccnc(N[C@H]2CC[C@H](N)CC2)n1
target.desc: HT-1080
reported.metric: IC50
result: 51 nM
//
compound: N[C@H]1CC[C@H](Nc2nccc(-c3cccnc3Oc3ccc(NS(=O)(=O)c4ccccc4Cl)c4ccccc34)n2)CC1
target.desc: HT-1080
reported.metric: IC50
result: 580 nM
//
compound: CN1CCCC(Nc2nccc(-c3cccnc3Oc3ccc(Nc4nc5ccccc5[nH]4)c4ccccc34)n2)C1 (stereo not drawn)
target.desc: HT-1080
reported.metric: IC50
result: 310 nM
//
compound: Cc1cc(Nc2nc3ccccc3[nH]2)c2ccccc2c1Oc1ncccc1-c1ccnc(NCCN(C)C)n1
target.desc: HT-1080
reported.metric: IC50
result: 200 nM
//
compound: c1cnc(Oc2ccc(Nc3nc4ccccc4[nH]3)c3ccccc23)c(-c2ccnc(N[C@@H]3CCCNC3)n2)c1
target.desc: HT-1080
reported.metric: IC50
result: 570 nM
//
compound: Cc1cc(NS(=O)(=O)c2ccccc2)c2ccccc2c1Oc1ncccc1-c1ccnc(N[C@H]2CC[C@H](N)CC2)n1
target.desc: HT-1080
reported.metric: IC50
result: 590 nM
//
compound: N[C@H]1CC[C@@H](Nc2nccc(-c3cccnc3Oc3ccc(Nc4nc5ccccc5[nH]4)c4ccccc34)n2)CC1
target.desc: HT-1080
reported.metric: IC50
result: 340 nM

---

pIC50: −log10 of the molar value.
Here's what we have: pIC50 numbers for Serine/threonine-protein kinase/endoribonuclease IRE1 (Homo sapiens).

compound: Cc1cc(Nc2nc3ccccc3[nH]2)c2ccccc2c1Oc1ncccc1-c1ccnc(N[C@H]2CC[C@H](N)CC2)n1
target.desc: Serine/threonine-protein kinase/endoribonuclease IRE1 (Homo sapiens)
pIC50: 8.19
//
compound: CN1CCCC(Nc2nccc(-c3cccnc3Oc3ccc(Nc4nc5ccccc5[nH]4)c4ccccc34)n2)C1 (stereo not drawn)
target.desc: Serine/threonine-protein kinase/endoribonuclease IRE1 (Homo sapiens)
pIC50: 7.54
//
compound: COc1ccccc1S(=O)(=O)Nc1cc(C)c(Oc2ncccc2-c2ccnc(N[C@H]3CC[C@H](N)CC3)n2)c2ccccc12
target.desc: Serine/threonine-protein kinase/endoribonuclease IRE1 (Homo sapiens)
pIC50: 7.27
//
compound: N[C@H]1CC[C@@H](Nc2nccc(-c3cccnc3Oc3ccc(Nc4nc5ccccc5[nH]4)c4ccccc34)n2)CC1
target.desc: Serine/threonine-protein kinase/endoribonuclease IRE1 (Homo sapiens)
pIC50: 7.37
//
compound: N[C@H]1CC[C@H](Nc2nccc(-c3cccnc3Oc3ccc(NS(=O)(=O)c4ccccc4Cl)c4ccccc34)n2)CC1
target.desc: Serine/threonine-protein kinase/endoribonuclease IRE1 (Homo sapiens)
pIC50: 7.51
//
compound: Cc1ccc2c(NS(=O)(=O)c3ccccc3Cl)cccc2c1Oc1ncccc1-c1ccnc(N[C@H]2CCCNC2)n1
target.desc: Serine/threonine-protein kinase/endoribonuclease IRE1 (Homo sapiens)
pIC50: 7.89
//
compound: Cc1cc(Nc2nc3ccccc3o2)c2ccccc2c1Oc1ncccc1-c1ccnc(N[C@H]2CC[C@H](N)CC2)n1
target.desc: Serine/threonine-protein kinase/endoribonuclease IRE1 (Homo sapiens)
pIC50: 7.85
//
compound: c1cnc(Oc2ccc(Nc3nc4ccccc4[nH]3)c3ccccc23)c(-c2ccnc(N[C@@H]3CCCNC3)n2)c1
target.desc: Serine/threonine-protein kinase/endoribonuclease IRE1 (Homo sapiens)
pIC50: 7.29

---

- target.desc: Mitogen-activated protein kinase 10 (Homo sapiens)
- measurement.protocol: Inhibition of human wild type JNK3 using biotinylated ATF2 substrate assessed as phosphorylation at thr53 on ATF2 by fluorescent plate reader
pIC50: −log10 of the molar value.
Respond with Fulfilled for pIC50 values of 6 and above, Not fulfilled for values below.

compound: Cc1cc(NS(=O)(=O)c2ccccc2)c2ccccc2c1Oc1ncccc1-c1ccnc(N[C@H]2CC[C@H](N)CC2)n1
class.assignment: Not fulfilled
--
compound: N[C@H]1CC[C@H](Nc2nccc(-c3cccnc3Oc3ccc(NS(=O)(=O)c4ccccc4Cl)c4ccccc34)n2)CC1
class.assignment: Fulfilled
--
compound: CN1CCCC(Nc2nccc(-c3cccnc3Oc3ccc(Nc4nc5ccccc5[nH]4)c4ccccc34)n2)C1 (stereo not drawn)
class.assignment: Fulfilled
--
compound: Cc1cc(NS(=O)(=O)c2ccccc2C#N)c2ccccc2c1Oc1ncccc1-c1ccnc(N[C@H]2CC[C@H](N)CC2)n1
class.assignment: Fulfilled
--
compound: CC(C)CCNc1nccc(-c2cccnc2Oc2ccc(Nc3nc4ccccc4[nH]3)c3ccccc23)n1
class.assignment: Fulfilled
--
compound: CN(C)CCNc1nccc(-c2cccnc2Oc2ccc(Nc3nc4ccccc4[nH]3)c3ccccc23)n1
class.assignment: Fulfilled
--
compound: Cc1cc(NS(=O)(=O)c2ccccc2Cl)c2ccccc2c1Oc1ncccc1-c1ccnc(N[C@H]2CC[C@H](N)CC2)n1
class.assignment: Not fulfilled

---

Below, each of the molecules is paired with its reported IC50 value.
- Test system: HT-1080
- measurement.protocol: Inhibition of human XBP1 splicing in human HT1080-CMV-XBP1-Luciferase cells assessed as luciferase signal by Promega Bright-Glo luciferase assay
- Format: functional
reported.metric: IC50 (nM)

molecule: N[C@H]1CC[C@H](Nc2nccc(-c3cccnc3Oc3ccc(Nc4nc5ccccc5[nH]4)c4ccccc34)n2)CC1
target.desc: HT-1080
reported.metric: IC50
unit.text: nM
numeric.readout: 33
//
molecule: Cc1cc(Nc2nc3ccccc3[nH]2)c2ccccc2c1Oc1ncccc1-c1ccnc(N[C@H]2CCCNC2)n1
target.desc: HT-1080
reported.metric: IC50
unit.text: nM
numeric.readout: 13
//
molecule: OCCNc1nccc(-c2cccnc2Oc2ccc(Nc3nc4ccccc4[nH]3)c3ccccc23)n1
target.desc: HT-1080
reported.metric: IC50
unit.text: nM
numeric.readout: 870
//
molecule: CC(C)CCNc1nccc(-c2cccnc2Oc2ccc(Nc3nc4ccccc4[nH]3)c3ccccc23)n1
target.desc: HT-1080
reported.metric: IC50
unit.text: nM
numeric.readout: 15000
//
molecule: c1cnc(Oc2ccc(Nc3nc4ccccc4[nH]3)c3ccccc23)c(-c2ccnc(N[C@H]3CCCNC3)n2)c1
target.desc: HT-1080
reported.metric: IC50
unit.text: nM
numeric.readout: 31
//
molecule: CN(C)CCNc1nccc(-c2cccnc2Oc2ccc(Nc3nc4ccccc4[nH]3)c3ccccc23)n1
target.desc: HT-1080
reported.metric: IC50
unit.text: nM
numeric.readout: 270
//
molecule: Cc1ccc2c(NS(=O)(=O)c3ccccc3Cl)cccc2c1Oc1ncccc1-c1ccnc(N[C@H]2CCCNC2)n1
target.desc: HT-1080
reported.metric: IC50
unit.text: nM
numeric.readout: 99
//
molecule: Cc1ccc2c(NS(=O)(=O)c3ccccc3Cl)cccc2c1Oc1ncccc1-c1ccnc(N[C@H]2CC[C@H](N)CC2)n1
target.desc: HT-1080
reported.metric: IC50
unit.text: nM
numeric.readout: 120
